- Tested on: Escherichia coli 205
- assay summary: Chemotherapeutic efficacy in vivo against systemic infection in mice (ED50)
- run conditions: Escherichia coli, 205, sc, s.c., female SPF MF2 mice
experimental readout: ED50 (mg/kg)
Please respond with the number in mg/kg and leave the unit unwritten.

- NC(=O)c1cc[n+](CC2=C(C(=O)[O-])N3C(=O)[C@@H](NC(=O)C(NC(=O)OC[C@@H](N)C(=O)O)c4csc(N)n4)[C@H]3SC2)cc1 (some centres unmarked): 9
- CO[C@@]1(NC(=O)CCCNC(=O)OC[C@@H](N)C(=O)O)C(=O)N2C(C(=O)O)=C(CSc3nnnn3C)CS[C@@H]21: 4
- CO[C@@]1(NC(=O)CCCNC(=O)OC[C@@H](N)C(=O)O)C(=O)N2C(C(=O)O)=C(COC(C)=O)CS[C@@H]21: 14
- Cn1nnnc1SCC1=C(C(=O)O)N2C(=O)[C@@H](NC(=O)CCCNC(=O)OC[C@@H](N)C(=O)O)[C@H]2SC1: 1.7

# input for lookup
Specify ED50 for CC(=O)OCC1=C(C(=O)O)N2C(=O)[C@@H](NC(=O)CCCNC(=O)OC[C@@H](N)C(=O)O)[C@H]2SC1 and stop.
7

---

- System: Proteus morganii 2359
- assay summary: Chemotherapeutic efficacy in vivo against systemic infection in mice (ED50)
- run conditions: Morganella morganii, 2359, sc, s.c., female SPF MF2 mice
experimental readout: ED50 (mg/kg)
Please give a number only; it is taken to be in mg/kg.

• CO[C@@]1(NC(=O)CCCNC(=O)OC[C@@H](N)C(=O)O)C(=O)N2C(C(=O)O)=C(CSc3nnnn3C)CS[C@@H]21 [Testverbindung 28] = 5
• CC(=O)OCC1=C(C(=O)O)N2C(=O)[C@@H](NC(=O)CCCNC(=O)OC[C@@H](N)C(=O)O)[C@H]2SC1 [Testverbindung 29] = 75
• NC(=O)c1cc[n+](CC2=C(C(=O)[O-])N3C(=O)[C@@H](NC(=O)C(NC(=O)OC[C@@H](N)C(=O)O)c4csc(N)n4)[C@H]3SC2)cc1 (some centres unmarked) [Testverbindung 26] = 10
• Cn1nnnc1SCC1=C(C(=O)O)N2C(=O)[C@@H](NC(=O)CCCNC(=O)OC[C@@H](N)C(=O)O)[C@H]2SC1 [Testverbindung 30] = 10

Turning to the following compound.
Give ED50 only, for CO[C@@]1(NC(=O)CCCNC(=O)OC[C@@H](N)C(=O)O)C(=O)N2C(C(=O)O)=C(COC(C)=O)CS[C@@H]21 [Testverbindung 27] , using Proteus morganii 2359 data.
8

---

Here's a batch of molecules along with measured MIC for Escherichia coli 205.

As a guide, the following entries are already answered.
- CO[C@@]1(NC(=O)CCCNC(=O)OC[C@@H](N)C(=O)O)C(=O)N2C(C(=O)O)=C(CSc3nnnn3C)CS[C@@H]21: 1 µg/mL
- Cn1nnnc1SCC1=C(C(=O)O)N2C(=O)[C@@H](NC(=O)CCCNC(=O)OC[C@@H](N)C(=O)O)[C@H]2SC1: 2 µg/mL
- CC(=O)OCC1=C(C(=O)O)N2C(=O)[C@@H](NC(=O)CCCNC(=O)OC[C@@H](N)C(=O)O)[C@H]2SC1: 32 µg/mL

Write down MIC measured for item CO[C@@]1(NC(=O)CCCNC(=O)OC[C@@H](N)C(=O)O)C(=O)N2C(C(=O)O)=C(COC(C)=O)CS[C@@H]21
1 µg/mL

Read off the recorded MIC for NC(=O)c1cc[n+](CC2=C(C(=O)[O-])N3C(=O)[C@@H](NC(=O)C(NC(=O)OC[C@@H](N)C(=O)O)c4csc(N)n4)[C@H]3SC2)cc1 (some centres unmarked)
0.2 µg/mL
